- Tgt: T1, PHF20 PHD finger (aa 651-699), wild type (human, UniProt Q9BVI0 651-699)
- T1 chain (looked up): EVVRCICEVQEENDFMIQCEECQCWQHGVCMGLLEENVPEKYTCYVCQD
- Assay comment: other fluorescence titration
pKd: −log10 of the molar value. Where no end group is shown, it is not given here. Me2 = dimethyl (dimethyl-lysine)

Binder	pKd
ARTK(Me2)QTARKSTG (peptide, UniProt P68431 2-13, looked up) [H3K4me2 peptide (aa 1-12)]	5.44

Reference source for all entries: paper PMC5125728
